Experiment Notes: Growth inhibition of human HEK293 cells at 1 uM after 24 hrs by MTT assay relative to control
Type: cell-based
Study Conditions: read-out: GI
Recorded Metric: inhibition at 24 h, 1 µM (%)
Reply with just the number (in %).

The cases that follow already have their inhibition at 24 h, 1 µM on record.
INSERT INTO results (molecule, units_label, readout_number) VALUES
  ('CCOP(=O)(OCC)C(Nc1cccc(Br)c1)c1ccc(-c2ccncc2)cc1 (stereo not given)', '%', 1),
  ('CCOP(=O)(OCC)C(NCc1cccnc1)c1ccc(-c2ccncc2)cc1 (stereo not given)', '%', 3.1),
  ('CCOP(=O)(OCC)C(Nc1nc2ccc([N+](=O)[O-])cc2s1)c1ccc(-c2ccncc2)cc1 (stereo not given)', '%', 0),
  ('CCOP(=O)(OCC)C(Nc1nccs1)c1ccc(-c2ccncc2)cc1 (stereo not given)', '%', 1);

Q: Endpoint output: inhibition at 24 h, 1 µM of CCOP(=O)(OCC)C(Nc1ccncc1)c1ccc(-c2ccncc2)cc1 (stereo not given) . Value?
A: 0.5

Q: Record: CCOP(=O)(OCC)C(Nc1ccc(F)c(Cl)c1)c1ccc(-c2ccncc2)cc1 (stereo not given)
A: 0.2

Q: Same thing, different molecule: CCOP(=O)(OCC)C(Nc1ccccc1)c1ccc(-c2ccncc2)cc1 (stereo not given)
A: 0

Q: // next record CCOP(=O)(OCC)C(Nc1nc2ccccc2s1)c1ccc(-c2ccncc2)cc1 (stereo not given)
A: 2.5

Q: Now consider CCOP(=O)(OCC)C(Nc1ccc(Cl)c([N+](=O)[O-])c1)c1ccc(-c2ccncc2)cc1 (stereo not given) and answer again.
A: 1.2

Q: CCOP(=O)(OCC)C(Nc1cccc([N+](=O)[O-])c1)c1ccc(-c2ccncc2)cc1 (stereo not given) ?
A: 0
